Test system: A549
assayProcedure: Inhibition of cell migration in human A549 cells at 2 uM incubated for 24 and 48 hrs by cellular scratch assay based microscopic analysis
Assay type: functional
Activity calls are given as the source filed them. The rule behind the calls is not given here.
Outcome codes: t = active, f = inactive

1) N=C(NC(=N)NC1CCCC1)Nc1ccc(C(F)(F)F)cc1 t
2) CC(C)CNC(=N)NC(=N)Nc1ccc(C(F)(F)F)cc1 t
3) CC(C)NC(=N)NC(=N)Nc1ccc(Cl)cc1 f
4) CCCCCCCNC(=N)NC(=N)Nc1ccc(F)c(F)c1 t

====

Tested on: UMUC3
assayProcedure: Antiproliferative activity against human UM-UC-3 cells assessed as reduction in cell viability incubated for 72 hrs by MTT assay
Type: functional, cell-based
conditionsUsed: UMUC3, 72 h
Reported IC50 values are given for each entry in this list.
readoutName: IC50 (µM)

1. N=C(NC(=N)NC1CCCC1)Nc1ccc(F)c(F)c1 7.2
2. CC(C)CNC(=N)NC(=N)Nc1ccc(C(F)(F)F)cc1 2
3. CC(C)NC(=N)NC(=N)Nc1ccc(C(F)(F)F)cc1 5.2
4. CCN(CC)C(=N)NC(=N)Nc1ccc(F)c(F)c1 22.1

====

System: A549
assayProcedure: Antiproliferative activity against human A549 cells assessed as reduction in cell viability incubated for 72 hrs by MTT assay
Assay type: functional, cell-based
conditionsUsed: A549, 72 h
# label = 1 if IC50 < 4 µM else -1

molecule	targetOrSystem	categoryLabel
CC(C)CNC(=N)NC(=N)Nc1ccc(F)c(F)c1	A549	1
N=C(NC(=N)NC1CCCC1)Nc1ccc(C(F)(F)F)cc1	A549	1
CCCCCCCNC(=N)NC(=N)Nc1ccc(F)c(F)c1	A549	1
CCN(CC)C(=N)NC(=N)Nc1ccc(C(F)(F)F)cc1	A549	1
CC(C)NC(=N)NC(=N)Nc1ccc(C(F)(F)F)cc1	A549	1
CC(C)NC(=N)NC(=N)Nc1ccc(F)cc1	A549	-1
CC(C)CNC(=N)NC(=N)Nc1ccc(C(F)(F)F)cc1	A549	1
N=C(NC(=N)NC1CCCC1)Nc1ccc(F)c(F)c1	A549	1
CC(C)NC(=N)NC(=N)Nc1ccc(Cl)cc1 [PROGUANIL]	A549	1
CCN(CC)C(=N)NC(=N)Nc1ccc(F)c(F)c1	A549	-1
CC(C)CNC(=N)NC(=N)Nc1ccc(F)cc1F	A549	1
